- procedure-summary: Systemic pharmacokinetics in plasma of healthy volunteers (UPLC-MS/MS), part A
- Format: in vivo, human
- reported-conditions: human, plasma, topical, 2 mg/cm^2, HVs, day 7; read-out: mean AUC(0-24 h)
- Description: The healthy volunteers in part A were administered 2 mg/cm^2 topical bimiralisib 2% on 400 cm^2 and 2 mg/cm^2 vehicle gel (serving as placebo with identical appearance) on 100 cm^2 skin of the back once daily by the study physician for 21 consecutive days, all administered at the study site. […] Pharmacokinetics in plasma were analyzed with a validated ultra-performance liquid chromatography–tandem mass spectrometer method (UPLC-MS/MS) with a lower limit of quantification of 1.00 ng/mL of plasma. […]
attribute-measured: AUC(0-t) (ng·h/mL)
A number alone suffices; assume ng·h/mL.

Q: Return reported AUC(0-t); argument: Nc1cc(C(F)(F)F)c(-c2nc(N3CCOCC3)nc(N3CCOCC3)n2)cn1
Ans: 21.3

----------
- procedure-summary: Systemic pharmacokinetics in plasma of healthy volunteers (UPLC-MS/MS), part A
- Type: in vivo, human
- reported-conditions: human, plasma, topical, 2 mg/cm^2, HVs, day 14; read-out: mean AUC(0-24 h)
attribute-measured: AUC(0-t)
Entry format: amount then unit.

Q: Name the recorded AUC(0-t) for Nc1cc(C(F)(F)F)c(-c2nc(N3CCOCC3)nc(N3CCOCC3)n2)cn1 .
Ans: 22.2 ng·h/mL

----------
- procedure-summary: Cutaneous pharmacokinetics in skin punch biopsies of MF patients (MALDI-MSI)
- Format: in vivo, human
- reported-conditions: human, skin punch biopsy, topical, 2 % gel, MF patients, day 42/84; read-out: cutaneous concentration in skin punch biopsies, range
attribute-measured: concentration at 6 h

Q: Entry Nc1cc(C(F)(F)F)c(-c2nc(N3CCOCC3)nc(N3CCOCC3)n2)cn1 has what concentration at 6 h?
Ans: 300 to 30200 ng/g

----------
- procedure-summary: Systemic pharmacokinetics in plasma of healthy volunteers (UPLC-MS/MS), part A
- Assay type: in vivo, human
- reported-conditions: human, plasma, 2 mg/cm^2; HVs, topical once daily; read-out: highest Cmax in plasma
attribute-measured: Cmax (ng/mL)
Express the result in ng/mL but write the number alone.

Q: Dear colleague, I am looking for the recorded Cmax of the following compound: Nc1cc(C(F)(F)F)c(-c2nc(N3CCOCC3)nc(N3CCOCC3)n2)cn1
Ans: 2.74

----------
- procedure-summary: Cutaneous pharmacokinetics in skin punch biopsies of healthy volunteers (MALDI-MSI)
- Format: in vivo, human
- reported-conditions: human, skin punch biopsy (epidermis), topical, 2 mg/cm^2; HVs, day 21, 6 h after last application; epidermis; read-out: mean concentration in skin punch biopsies
attribute-measured: concentration at 6 h

Q: Find the recorded concentration at 6 h belonging to Nc1cc(C(F)(F)F)c(-c2nc(N3CCOCC3)nc(N3CCOCC3)n2)cn1 [bimiralisib] and report it.
Ans: 2540 ng/g

----------
- procedure-summary: Cutaneous pharmacokinetics in skin punch biopsies of healthy volunteers (MALDI-MSI)
- Assay type: in vivo, human
- reported-conditions: human, skin / plasma, topical, 2 mg/cm^2, HVs; read-out: ratio skin/plasma concentration, range
attribute-measured: Kp at 6 h

Q: What does the record list as Kp at 6 h for Nc1cc(C(F)(F)F)c(-c2nc(N3CCOCC3)nc(N3CCOCC3)n2)cn1 ?
Ans: 1210 to 7360

src = paper PMC8946662
